- Test system: ATP;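 note: ATP exposure 15 min at 22 °C before imaging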
- protocol.details: switch fluorescence ratio, 500 uM ATP over buffer (Cy3 cluster intensity, sum of 5 cycles each) (fold (ratio)); higher = stronger signal-on switching upon ATP binding; sequences stand for … in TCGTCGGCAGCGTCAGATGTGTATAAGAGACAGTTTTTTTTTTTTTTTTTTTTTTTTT…TC
- condition.parameters: aptamer strand: ATP DNA aptamer (quencher-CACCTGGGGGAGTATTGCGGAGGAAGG + anchor), 100 nM annealed; ATP concentration: 500 uM
measure: switch fluorescence ratio

1) GGAGGGGATC :: 0.998
2) TAGGTGATTT :: 1.03
3) AATAACGATC :: 1.04
4) GGAAATATAG :: 0.989
5) GGCTGAGCGG :: 0.976
6) CAACGAGGGG :: 1.02
